Tested on: Es-2
Procedure Details: Primary qHTS to identify gynecologic anti-cancer compounds using libraries of approved drugs and bioactive compounds (AID 1345084); also: % is scaled to controls: 0 for no effect and ±100 for the full control effect; nearly all actives have a fitted effect of over 55% in size
Assay Conditions: Gynecologic cancer cell panel viability, ATPlite luminescence, 48 h; series mostly up to 57.5 µM
Records with an inconclusive call do not appear. The source made the active and inactive calls. Calls follow the shape of the dose curve; as a rule, active = well fitted cell-killing curve with a large enough effect; inconclusive = small, poorly fitted or top-dose-only effect, or effect the other way; inactive = flat fitted curve, though single readings scatter.
Reported Metric: activity change, negative = cytotoxicity

Example compounds with recorded activity change, negative = cytotoxicity:
NC(=O)N[C@@H](CCC(=O)O)C(=O)O
inactive
Cc1cc(=O)[nH]c(=S)[nH]1
inactive
Cc1c(I)c(=O)n(-c2ccccc2)n1C
inactive
N[C@@H](Cc1ccc(O)cc1)C(=O)O
-4.06% [at 11.6 µM] (inactive)
Cc1cc(NC(=O)C2=C(O)c3ccccc3S(=O)(=O)N2C)no1
inactive
CCCCOC(=O)c1ccc(N)cc1
inactive
C=CCNC(N)=S
inactive
CC(=O)N[C@@H](Cc1ccc(O)cc1)C(=O)O
inactive

Quick request: activity change, negative = cytotoxicity for each listed item, please.
1. CC(C)=CCC/C(C)=C/CO
2. NCC1CCC(C(=O)Oc2ccc(CCC(=O)O)cc2)CC1 (stereo not drawn)
3. O=C(O)c1ccc(OCCCOc2ccc(C(=O)O)cc2)cc1
4. COc1ccccc1Oc1c(NS(=O)(=O)c2ccc(C(C)(C)C)cc2)nc(-c2ncccn2)nc1OCCO
5. COc1ccc(O)cc1

Reply:
["inactive", "inactive", "inactive", "inactive", "inactive"]
